Test system: A498
Assay: NCI 60 cell line panel (SRB), A498
Format: cell-based
Details: Homo sapiens; A498, Renal Cancer; single dose of 10 μM; read-out: Cell Growth Percent
measured_metric: activity at 10 µM (%)
Kindly provide the numeric value in % only, without the unit symbol.

Field activity at 10 µM (entry CCOC(=O)c1c(C)oc2ncnc(Nc3ccc(NC(=O)Nc4cccc(Cl)c4)cc3)c12 [Compound 15d] ) reads 63

activity at 10 µM in this record for O=C(Nc1ccc(Cl)cc1)Nc1ccc(Oc2ncnc3sc4c(c23)CCCC4)cc1 [Compound 21d] : 70.1

The recorded activity at 10 µM for COc1cccc(NC(=O)Nc2ccc(Oc3ncnc4sc5c(c34)CCCC5)cc2)c1 [Compound 21c] is 67.8

The recorded activity at 10 µM for entry CCOC(=O)c1c(C)oc2ncnc(Nc3ccc(C(=O)Nc4ccc(OC)cc4)cc3)c12 [Compound 14b] equals 75.3
